Cited source for all entries: patent US20120220581A1

Target or test system: Rat recombinant PDE10A (rPDE10A2) (Rattus norvegicus)
Construct: inferred from the Ni metal chelate purification; made in house; host or cells: Sf9 insect cells (baculovirus)
Sequence (Q9QYJ6 whole entry): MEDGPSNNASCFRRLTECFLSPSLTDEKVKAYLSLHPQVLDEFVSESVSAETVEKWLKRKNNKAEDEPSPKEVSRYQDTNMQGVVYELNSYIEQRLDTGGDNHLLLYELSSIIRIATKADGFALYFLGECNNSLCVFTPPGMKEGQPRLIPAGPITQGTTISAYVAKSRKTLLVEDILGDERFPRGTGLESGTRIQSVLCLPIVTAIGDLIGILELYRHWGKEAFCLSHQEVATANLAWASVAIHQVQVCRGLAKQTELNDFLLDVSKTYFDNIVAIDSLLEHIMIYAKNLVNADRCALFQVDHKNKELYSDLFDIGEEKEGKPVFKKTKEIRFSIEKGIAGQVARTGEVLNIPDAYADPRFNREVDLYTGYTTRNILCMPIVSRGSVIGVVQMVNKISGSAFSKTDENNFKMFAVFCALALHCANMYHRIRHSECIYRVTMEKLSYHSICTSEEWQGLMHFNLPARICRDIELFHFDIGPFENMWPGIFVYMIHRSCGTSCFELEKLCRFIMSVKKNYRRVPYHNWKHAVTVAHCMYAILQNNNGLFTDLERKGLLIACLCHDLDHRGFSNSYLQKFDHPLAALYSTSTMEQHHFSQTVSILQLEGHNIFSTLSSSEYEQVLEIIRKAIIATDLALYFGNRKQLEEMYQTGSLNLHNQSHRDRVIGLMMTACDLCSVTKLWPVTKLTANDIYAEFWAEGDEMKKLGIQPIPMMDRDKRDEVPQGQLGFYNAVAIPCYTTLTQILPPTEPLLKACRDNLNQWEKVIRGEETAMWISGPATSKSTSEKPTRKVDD
Procedure summary: In vitro assay PDE10A (SPA, 3H-cAMP)
Format: biochemical
Experimental context: pIC50 corresponds to the −log IC50 expressed in mol/L; read-out: PDE10A2 pIC50 (converted)
Parameter: IC50 (nM)

COC(C)(C)Cc1ccc(-c2c(C)nc3c(N4CCOCC4)ccnn23)cn1 [compound 3]    26.3
COC(C)(C)CCc1ccc(-c2c(C)nc3c(N4CCOCC4)ccnn23)cn1 [compound 29]    43.7
Cc1cc(-c2ccncc2)c2nc(C)c(-c3ccc(N4CCOCC4)nc3)n2n1 [compound 70]    126
COCCOc1ccc(-c2c(C)nc3c(-c4ccncc4)ccnn23)cn1 [compound 21]    102
Cc1nc2c(-c3ccncc3)ccnn2c1-c1ccc(N2CCNCC2)nc1 [compound 97]    141

====

Target or test system: Rat recombinant PDE10A (rPDE10A2) (Rattus norvegicus)
Construct: inferred from the Ni metal chelate purification; made in house; host or cells: Sf9 insect cells (baculovirus)
Procedure summary: In vitro assay PDE10A (SPA, 3H-cAMP)
Type: biochemical
Experimental context: pIC50 corresponds to the −log IC50 expressed in mol/L; read-out: PDE10A2 pIC50 (converted)
Form field: log10 of IC50 (one value per entry).
Parameter: log10 of IC50 (log10 of the value in nM)

Cc1nc2c(N3CCOCC3)ccnn2c1-c1ccnc(NC(C)C)c1    1.40
CCc1ccc(-c2c(C3CC3)nc3c(N4CCOCC4)ccnn23)cn1    1.82
COCCn1cc(-c2c(C(C)C)nc3c(N4CCOCC4)ccnn23)cn1    2.84
COCCc1ccc(-c2c(C)nc3c(N4CCOCC4)cc(C4CC4)nn23)cn1    2.29
CCOCCc1ccc(-c2c(C)nc3c(N4CCOCC4)ccnn23)cn1    1.53
Cc1nc2c(N3CCOCC3)ccnn2c1-c1ccc(CCN2CCCC2)nc1    2.11
CC(C)(O)Cc1ccc(-c2c(C3CC3)nc3c(N4CCOCC4)ccnn23)cn1    1.32
COCCn1cc(-c2c(C)nc3c(N4CCOCC4)cc(C(F)(F)F)nn23)cn1    2.34
COCCc1ccc(-c2c(C)nc3c(N4CCOCC4)cc(C)nn23)cn1    2.05
Cc1nc2c(N3CCOCC3)ccnn2c1-c1cnn(CC2CC2(F)F)c1 (stereo not drawn)    1.70
COC(C)(C)Cc1ccc(-c2c(C)nc3c(-c4ccncc4)cc(C)nn23)cn1    2.06
COCCn1cc(-c2c(C(C)C)nc3c(-c4ccncc4)ccnn23)cn1    2.37
CO[C@H]1CCN(c2ccc(-c3c(C)nc4c(N5CCOCC5)ccnn34)cn2)C1    2.20
Cc1nc2c(N3CCOCC3)ccnn2c1-c1ccnc(N2CCNCC2)c1    2.41
Cc1nc2c(N3CCOCC3)ccnn2c1-c1ccc(OCC(F)(F)F)nc1    2.41
Cc1nc2c(N3CCOCC3)ccnn2c1-c1ccc(C2CC2)nc1    1.89
COC(C)(C)Cc1ccc(-c2c(C3CC3)nc3c(N4CCOCC4)ccnn23)cn1    1.70
COC(C)(C)Cc1ccc(-c2c(C3CC3)nc3c(-c4ccncc4)cc(C)nn23)cn1    1.58
